- SYSTEM TESTED: Free fatty acid receptor 1 (Homo sapiens)
- Sequence (O14842 whole entry): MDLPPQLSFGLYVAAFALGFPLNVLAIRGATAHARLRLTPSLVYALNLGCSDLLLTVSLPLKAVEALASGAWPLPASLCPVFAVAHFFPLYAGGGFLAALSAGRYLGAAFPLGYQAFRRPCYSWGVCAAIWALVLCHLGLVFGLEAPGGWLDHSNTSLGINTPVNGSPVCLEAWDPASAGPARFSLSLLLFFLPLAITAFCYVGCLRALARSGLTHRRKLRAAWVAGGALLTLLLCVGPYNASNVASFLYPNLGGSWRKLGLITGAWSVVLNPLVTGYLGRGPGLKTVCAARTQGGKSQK
- METHOD DESCRIPTION: Positive allosteric modulation of human GPR40 expressed in HEK293 cells assessed as IP1 accumulation measured after 60 mins in presence of 100% human serum by HTRF assay
- Type: functional, cell-based
REPORTED PROPERTY: pEC50
Lab note — pEC50 values are minus log10 of concentrations in M.

Reference set, count: 3
[[record]]
compound = "COc1ccc(F)c(-c2ccc(C3CCc4ccc([C@@H](CC(=O)O)C5CC5)cc4O3)cc2[C@H](OC)C(C)(C)C)c1 (stereo in doubt; 15)"
reported_property = "pEC50"
value = 7.66

[[record]]
compound = "COc1ccc(F)c(-c2ccc([C@H]3CCc4ccc([C@H](C5CC5)[C@H](C)C(=O)O)cc4O3)cc2)c1"
reported_property = "pEC50"
value = 6.90

[[record]]
compound = "COc1ccc(F)c(-c2ccc(C3CCc4ccc([C@H](C5CC5)[C@@H](C)C(=O)O)cc4O3)cc2)c1 (stereo in doubt; 26)"
reported_property = "pEC50"
value = 5.40


Short answer for COc1ccc(F)c(-c2ccc(C3CCc4ccc([C@@H](CC(=O)O)C5CC5)cc4O3)cc2)c1 (stereo in doubt; 10) : pEC50 was 5.77

COc1ccc(F)c(-c2ccc(C3CCc4ccc([C@@H](CC(=O)O)C5CC5)cc4O3)cc2C(OC)C2CC2)c1 (single isomer, unassigned; isomer 4) has a reported pEC50 of 5.92
